Values were extracted from patent US9604961B2.

pIC50: −log10 of the molar value.
Reported pIC50 values, Jarid1A (Homo sapiens (Human), UniProt P29375).

IN: Which value of pIC50 has been reported for CCCCOc1cc(Cl)ccc1COc1ccnn1-c1cc(C(=O)O)ccn1 [Example 111] in the records?
OUT: 6.00 to 7.00

IN: Which value of pIC50 has been reported for CCCCc1ccnn1-c1cc(C(=O)O)ccn1 [Example 44] in the records?
OUT: 5.00 to 6.00

IN: Which value of pIC50 has been reported for COc1cccc(COc2ccnn2-c2cc(C(=O)O)ccn2)c1 [Example 42] in the records?
OUT: > 7.00

IN: Which value of pIC50 has been reported for O=C(O)c1ccnc(-n2nccc2OCc2ccccc2F)c1 [Example 59] in the records?
OUT: > 7.00

IN: Which value of pIC50 has been reported for O=C(O)c1ccnc(-n2nccc2OCC2CCC(F)(F)CC2)c1 [Example 71] in the records?
OUT: > 7.00

IN: Which value of pIC50 has been reported for Cc1cc(O)n(-c2cc(C(=O)O)ccn2)n1 [Example 1] in the records?
OUT: 6.00 to 7.00

IN: Which value of pIC50 has been reported for O=C(O)c1ccnc(-n2ccc(CCc3ccccc3)n2)c1 [Example 35] in the records?
OUT: 6.00 to 7.00

IN: Which value of pIC50 has been reported for N#Cc1cccc(COc2ccnn2-c2cc(C(=O)O)ccn2)c1 [Example 97] in the records?
OUT: > 7.00

IN: Which value of pIC50 has been reported for O=C(O)c1ccnc(-n2nccc2OCc2ccc(F)cc2OCc2ccc(F)cc2)c1 [Example 118] in the records?
OUT: > 7.00

IN: Which value of pIC50 has been reported for O=C(O)c1ccnc(-n2nccc2OCc2ccc(Cl)cc2OCC2CC2)c1 [Example 106] in the records?
OUT: > 7.00

IN: Which value of pIC50 has been reported for COc1cc(C)nn1-c1cc(C(=O)O)ccn1 [Example 37] in the records?
OUT: 5.00 to 6.00

IN: Which value of pIC50 has been reported for O=C(O)c1ccnc(-n2nccc2OCc2ccc(F)c(F)c2)c1 [Example 52] in the records?
OUT: > 7.00

IN: Which value of pIC50 has been reported for O=C(O)c1ccnc(-n2nccc2OCc2ccc(Cl)c(Cl)c2)c1 [Example 87] in the records?
OUT: > 7.00

IN: Which value of pIC50 has been reported for O=C(O)c1ccnc(-n2nc(-c3ccccc3Cl)cc2O)c1 [Example 7] in the records?
OUT: 5.00 to 6.00

IN: Which value of pIC50 has been reported for COc1cc(C)ccc1COc1ccnn1-c1cc(C(=O)O)ccn1 [Example 133] in the records?
OUT: > 7.00

IN: Which value of pIC50 has been reported for O=C(O)c1ccnc(-n2nccc2OCc2ccc(F)cc2CCc2ccc(F)cc2)c1 [Example 121] in the records?
OUT: 6.00 to 7.00

IN: Which value of pIC50 has been reported for CCc1cc(-c2ccc(C)cc2)n(-c2cc(C(=O)O)ccn2)n1 [Example 30] in the records?
OUT: 5.00 to 6.00

IN: Which value of pIC50 has been reported for Cc1ccc(COc2ccnn2-c2cc(C(=O)O)ccn2)c(F)c1 [Example 131] in the records?
OUT: > 7.00

IN: Which value of pIC50 has been reported for O=C(O)c1ccnc(-n2nccc2OCc2cccc3c2OCC3)c1 [Example 123] in the records?
OUT: > 7.00

IN: Which value of pIC50 has been reported for O=C(O)c1ccnc(-n2nccc2OCc2ccc(Cl)c(OCC(F)(F)F)c2)c1 [Example 141] in the records?
OUT: > 7.00

IN: Which value of pIC50 has been reported for Cc1c(-c2ccccc2)cnn1-c1cc(C(=O)O)ccn1 [Example 36] in the records?
OUT: 6.00 to 7.00

IN: Which value of pIC50 has been reported for O=C(O)c1ccnc(-n2ncc(CCO)c2OCc2ccc(F)cc2)c1 [Example 109] in the records?
OUT: > 7.00

IN: Which value of pIC50 has been reported for Cc1ccc(COc2ccnn2-c2cc(C(=O)O)ccn2)c(C)c1 [Example 132] in the records?
OUT: > 7.00

IN: Which value of pIC50 has been reported for O=C(O)c1ccnc(-n2nccc2OCc2ccc(Cl)cc2OCc2ccccc2)c1 [Example 105] in the records?
OUT: > 7.00

IN: Which value of pIC50 has been reported for N#Cc1ccc(COc2ccnn2-c2cc(C(=O)O)ccn2)cc1 [Example 99] in the records?
OUT: > 7.00

IN: Which value of pIC50 has been reported for O=C(O)c1ccnc(-n2nccc2-c2cccc(F)c2)c1 [Example 16] in the records?
OUT: 6.00 to 7.00

IN: Which value of pIC50 has been reported for Cc1ccc(COc2ccnn2-c2cc(C(=O)O)ccn2)c(C#N)c1 [Example 134] in the records?
OUT: > 7.00

IN: Which value of pIC50 has been reported for O=C(O)c1ccnc(-n2nccc2OCc2ccc(Cl)cc2CCc2ccc(F)cc2)c1 [Example 122] in the records?
OUT: 6.00 to 7.00

IN: Which value of pIC50 has been reported for O=C(O)c1ccnc(-n2nccc2OC2CCCc3cc(F)ccc32)c1 (stereo not drawn) [Example 148] in the records?
OUT: 6.00 to 7.00

IN: Which value of pIC50 has been reported for O=C(O)c1ccnc(-n2nccc2OCc2ccc(Cl)cc2Cl)c1 [Example 88] in the records?
OUT: > 7.00
